These data points were gathered from patent US7208505B2.

# system: human β3 adrenergic receptor (Homo sapiens, UniProt P13945)
# Construct: expressed in transfected cells
# Sequence (P13945 whole entry): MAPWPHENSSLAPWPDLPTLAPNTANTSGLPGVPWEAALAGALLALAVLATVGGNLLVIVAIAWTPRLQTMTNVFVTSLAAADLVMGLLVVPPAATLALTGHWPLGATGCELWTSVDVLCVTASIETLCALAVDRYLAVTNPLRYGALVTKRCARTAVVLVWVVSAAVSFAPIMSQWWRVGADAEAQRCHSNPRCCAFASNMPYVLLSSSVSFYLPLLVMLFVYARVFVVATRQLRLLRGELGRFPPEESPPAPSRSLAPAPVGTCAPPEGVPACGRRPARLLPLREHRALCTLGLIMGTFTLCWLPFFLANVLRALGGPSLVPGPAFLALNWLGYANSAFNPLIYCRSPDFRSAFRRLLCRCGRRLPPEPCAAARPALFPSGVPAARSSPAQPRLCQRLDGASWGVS
# measurementProtocol: whole cell receptor coupled c-AMP assay (Emax relative to isoproterenol)
# Type: cell-based
# setupConditions: % intrinsic activity: maximal response divided by isoproterenol maximal response times 100; transfected CHO cells; average of at least 3 runs
Measured Emax (%) ± SEM, listed per entry.
propertyLabel: Emax (%) ± SEM

compound=CC(C)(CNC(=O)c1c[nH]c2ccccc12)NC[C@H](O)COc1ccccc1-c1cccs1 system="human β3 adrenergic receptor (Homo sapiens, UniProt P13945)" propertylabel="Emax (%) ± SEM" measvalue=32.1
compound=CC(C)(Cc1c[nH]c2c(NS(C)(=O)=O)cccc12)NC[C@H](O)COc1ccccc1-c1cccs1 system="human β3 adrenergic receptor (Homo sapiens, UniProt P13945)" propertylabel="Emax (%) ± SEM" measvalue=81.0
compound=CC(C)(Cc1c[nH]c2ccccc12)NC[C@H](O)COc1ccccc1-c1ccc(S(N)(=O)=O)s1 system="human β3 adrenergic receptor (Homo sapiens, UniProt P13945)" propertylabel="Emax (%) ± SEM" measvalue=85.6
compound=Cc1cc2c(OCC#N)cccc2n1C[C@@H](C)NC[C@H](O)COc1ccccc1-c1cccs1 system="human β3 adrenergic receptor (Homo sapiens, UniProt P13945)" propertylabel="Emax (%) ± SEM" measvalue=41.9
compound="CC(C)(Cc1c[nH]c2c(C=CS(C)(=O)=O)cccc12)NCC(O)COc1ccccc1-c1cccs1 (stereo not drawn)" system="human β3 adrenergic receptor (Homo sapiens, UniProt P13945)" propertylabel="Emax (%) ± SEM" measvalue=65.0
compound=CC(C)(Cc1c[nH]c2c(OCC#N)cccc12)NC[C@H](O)COc1ccccc1-n1cccc1 system="human β3 adrenergic receptor (Homo sapiens, UniProt P13945)" propertylabel="Emax (%) ± SEM" measvalue=64.1
compound=COC(=O)c1cccc2c(CC(C)(C)NC[C@H](O)COc3ccccc3-c3cccs3)c[nH]c12 system="human β3 adrenergic receptor (Homo sapiens, UniProt P13945)" propertylabel="Emax (%) ± SEM" measvalue=67.6
compound=CC(=O)Nc1ccc(-c2cccc3c(CC(C)(C)NC[C@H](O)COc4ccccc4-c4cccs4)c[nH]c23)cc1 system="human β3 adrenergic receptor (Homo sapiens, UniProt P13945)" propertylabel="Emax (%) ± SEM" measvalue=71.5
compound=COC(=O)c1cccc2[nH]cc(CC(C)(C)NC[C@H](O)COc3ccccc3-c3cccs3)c12 system="human β3 adrenergic receptor (Homo sapiens, UniProt P13945)" propertylabel="Emax (%) ± SEM" measvalue=39.1
compound=CC(C)(Cc1c[nH]c2c(Oc3ncccc3C#N)cccc12)NC[C@H](O)COc1ccccc1-c1ccon1 system="human β3 adrenergic receptor (Homo sapiens, UniProt P13945)" propertylabel="Emax (%) ± SEM" measvalue=76.5
compound=CC(C)(Cc1c[nH]c2cc(C#N)ccc12)NC[C@H](O)COc1ccccc1-c1cccs1 system="human β3 adrenergic receptor (Homo sapiens, UniProt P13945)" propertylabel="Emax (%) ± SEM" measvalue=73.9
compound=CC(C)(Cc1c[nH]c2c(OCC#N)cccc12)NC[C@H](O)COc1ccccc1-c1cc(C#N)cs1.O=C(O)C(F)(F)F system="human β3 adrenergic receptor (Homo sapiens, UniProt P13945)" propertylabel="Emax (%) ± SEM" measvalue=59.1
compound=COC(=O)c1ccc(-c2cccc3c(CC(C)(C)NC[C@H](O)COc4ccccc4-n4cccc4)c[nH]c23)cc1 system="human β3 adrenergic receptor (Homo sapiens, UniProt P13945)" propertylabel="Emax (%) ± SEM" measvalue=41.9
compound=CC(C)(Cc1c[nH]c2c(NS(=O)(=O)c3ccccc3)cccc12)NC[C@H](O)COc1ccccc1-c1ccon1 system="human β3 adrenergic receptor (Homo sapiens, UniProt P13945)" propertylabel="Emax (%) ± SEM" measvalue=70.9
compound=CC(C)(Cc1c[nH]c2ccc(C(N)=O)cc12)NC[C@H](O)COc1ccccc1-c1cccs1 system="human β3 adrenergic receptor (Homo sapiens, UniProt P13945)" propertylabel="Emax (%) ± SEM" measvalue=47.4
